Give measured protein stability index for each item. Keep answers brief.
B1: ZNF649 (parent)
chain: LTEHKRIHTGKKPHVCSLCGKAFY

# Variants of: B1
# Test details: protein stability index of a GFP-peptide fusion (GPS, HEK-293T) (PSI 1-6); higher = more stable;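 further: lentivirally expressed fusions sorted by FACS into six bins by GFP to DsRed ratio, PSI derived from sequencing read proportions per bin multiplied by bin number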
# Condition set: c terminus: a fixed tail appended
# print the numeric value only

Retrieve protein stability index measured for `T9Q` and print it.
2.31

Tell me protein stability index reported for `K21P`
2.55

For the variant `F23Q` , report protein stability index.
2.3

Tell us which protein stability index value is on record for `C19S`
1.92

Identify protein stability index associated with the variant `S17W`
2.72

Please give the documented protein stability index of `E3I`
1.96

Consider the variant `F23Y` and give its recorded protein stability index.
2.47

Give protein stability index for `L18G`
2.82

Read off the recorded protein stability index for `K5N`
3.39

Answer with the recorded protein stability index for the variant listed here: `F23H`
4.3

Dear colleague, please send me the reported protein stability index for `C16T` when you can.
2.23

// fetch protein stability index given entry `H4W`
2.78

Please report protein stability index for the following variant: `G20P`
1.91

Give me measured protein stability index, please, for this variant: `K21V`
3.11

Read off the recorded protein stability index for `H14P`
3.18

Quick one: give measured protein stability index for `Y24P`
3.45

Answer with reported protein stability index of `K11M`
2.56

For the variant `H8K` , report protein stability index.
2.14

Name the recorded protein stability index of the variant listed here: `H4Q`
3.31

Note protein stability index for the variant shown: `I7P`
2.38

Specify protein stability index for `L18Y` and stop.
2.2

Identify measured protein stability index associated with `L18V`
2.37
